protocolSummary: in vivo
measurementConditions: rat, po, 100 mg/kg
experimentalReadout: concentration at 4 h (ng/mL)
Write the number in ng/mL without appending the unit.

State the recorded concentration at 4 h for this entry: CC1(C)S[C@@H]2[C@H](NC(=O)[C@H](N)c3ccccc3)C(=O)N2[C@H]1C(=O)O [sodium ampicillin]
800

----------
protocolSummary: in vivo
measurementConditions: rat, po, 100 mg/kg
experimentalReadout: AUC at 6 h (ng·h/mL)
Numbers only here, please. The scale is ng·h/mL.

Looking for the measured AUC at 6 h of CC1(C)S[C@@H]2[C@H](NC(=O)[C@H](N)c3ccccc3)C(=O)N2[C@H]1C(=O)O [sodium ampicillin] , can you help?
10700

----------
protocolSummary: in vivo
measurementConditions: rat, po, 100 mg/kg
experimentalReadout: concentration at 0.5 h (ng/mL)
Numeric only. Scale: ng/mL

Please look up its concentration at 0.5 h: CC1(C)S[C@@H]2[C@H](NC(=O)[C@H](N)c3ccccc3)C(=O)N2[C@H]1C(=O)O [sodium ampicillin]
6400

----------
protocolSummary: in vivo
measurementConditions: rat, po, 100 mg/kg
experimentalReadout: concentration at 1 h (ng/mL)
# number only, unit ng/mL dropped from output

Recorded concentration at 1 h of CC1(C)S[C@@H]2[C@H](NC(=O)[C@H](N)c3ccccc3)C(=O)N2[C@H]1C(=O)O [sodium ampicillin] , please.
4600

----------
protocolSummary: in vivo
measurementConditions: rat, po, 100 mg/kg
experimentalReadout: concentration at 2 h (ng/mL)
Numbers only here, please. The scale is ng/mL.

// concentration at 2 h lookup, key: CC1(C)S[C@@H]2[C@H](NC(=O)[C@H](N)c3ccccc3)C(=O)N2[C@H]1C(=O)O [sodium ampicillin]
1400

----------
protocolSummary: in vivo
measurementConditions: rat, po, 100 mg/kg
experimentalReadout: concentration at 6 h (ng/mL)
State just the number; it will be interpreted in ng/mL.

Quick one: concentration at 6 h of CC1(C)S[C@@H]2[C@H](NC(=O)[C@H](N)c3ccccc3)C(=O)N2[C@H]1C(=O)O [sodium ampicillin] ?
200
